Data origin, for the record: patent US9493434B2

# measurement.target: σ1-receptor (Cavia porcellus)
# Sequence (Q60492 whole entry): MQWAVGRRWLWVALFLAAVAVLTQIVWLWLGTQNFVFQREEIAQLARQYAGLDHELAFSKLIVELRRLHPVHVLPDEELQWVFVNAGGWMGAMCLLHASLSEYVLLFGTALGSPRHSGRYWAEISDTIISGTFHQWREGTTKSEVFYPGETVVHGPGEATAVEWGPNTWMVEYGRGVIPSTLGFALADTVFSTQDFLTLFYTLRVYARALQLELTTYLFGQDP
pKi: −log10 of the molar value. Counter-ions that a name gives are not always drawn.
We use 8 as the dividing line for pKi: on or above the line is true, below is false.

For orientation, consider the following solved cases.
[
  {
    "compound": "Fc1cccc(-c2cccc3c2CC=C3CCN2CCOCC2)c1 [Compound 18, maleate]",
    "cat": "true"
  },
  {
    "compound": "Cc1noc(C)c1-c1cccc2c1CC=C2CCN1CCN(C)CC1 [Compound 28, maleate]",
    "cat": "false"
  },
  {
    "compound": "CN1CCN(CCC2=CCc3c2cccc3-c2ccncc2)CC1 [Compound 30, maleate]",
    "cat": "false"
  },
  {
    "compound": "CC1=C(CCN2CCN(C)CC2)c2cccc(-c3ccccc3)c2C1 [Compound 12, maleate]",
    "cat": "false"
  },
  {
    "compound": "CC1=C(CCN2CCOCC2)c2cccc(-c3ccccc3)c2C1 [Compound 11, maleate]",
    "cat": "false"
  }
]

Please check the record C1=C(CCN2CCOCC2)c2cccc(-c3ccccc3)c2C1 [Compound 1, maleate] and state if its pKi is at or above 8.
true
